Please respond with reported %Inh for every item in the list.
Tested on: CLK1
Conditions: concentration: 1 μM, replicates: in singlicate; n = 1;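 also: KINOMEscan kinase panel screen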
Give bare numbers, in %.

Consider the following illustrative entries.
Compound: NS(=O)(=O)c1cccc(N/C=C2\C(=O)Nc3ccc(S(=O)(=O)Cc4c(Cl)cccc4Cl)cc32)c1 [GSK398099]
%Inh (%): 43

Compound: COc1ccc(Nc2nccc(N3CCC(NC(=O)C(C)c4ccc(Cl)cc4)CC3)n2)cc1 (stereo not drawn) [GSK1379812]
%Inh (%): 13

Compound: Cc1c(Cn2c3ccccc3n3c(=O)cc(N4CCOCC4)nc23)cccc1C(F)(F)F [GSK2306394]
%Inh (%): 18

Compound: CC(C)c1cc(-c2ccc3c(N)n[nH]c3c2)nc(N)n1 [GSK2250882]
%Inh (%): 59

Compound: Cc1ccccc1Cn1ccn2c(=O)cc(N3CCOCC3)nc12 [GSK2269905]
%Inh (%): 48

Hello, I would appreciate it if you could give %Inh for each entry below.
1. Cc1cnc(N)c(/C=C/c2cncc(C(=O)NCCc3ccc(Cl)cc3Cl)c2)c1.Cl [GSK190937]
2. CS(=O)(=O)CCNCc1nc(-c2ccc3ncnc(Nc4ccc(OCc5ccccc5)c(Cl)c4)c3c2)cs1.Cl [GW582764]
3. CCn1c(-c2ccccc2)nc2cnccc21 [SB-733416]

Result:
38
22
17

====

Test system: PRKR
Construct: gene EIF2AK2
Details: concentration: 1 μM, replicates: in singlicate; n = 1
Answer each item with its documented %Inh.
Answers are plain numbers, in %.

Here is how some compounds turned out for %Inh.
Compound: Cl.Cl.Cl.N#Cc1ccc(CCNc2nccc(-c3cccc(CN4CCNCC4)c3)n2)cc1
Measured parameter: %Inh
Observed value: 0
--
Compound: COC(=O)c1cccc(NC(=O)NC2CCN(c3ccnc(Nc4ccc(OC)cc4)n3)C2)c1 (stereo not shown)
Measured parameter: %Inh
Observed value: 0
--
Compound: Cc1ccc(NC(=O)Nc2ccc(Cl)cc2)cc1-c1ccc(C(=O)Nc2ccncc2)cc1
Measured parameter: %Inh
Observed value: 1
--
Compound: Nc1cccc(-c2ccc3c(N)n[nH]c3c2)n1
Measured parameter: %Inh
Observed value: 10
--
Compound: Cn1cncc1C(=O)NC1CCN(c2ccnc(Nc3ccc(F)cc3)n2)C1 (stereo not shown)
Measured parameter: %Inh
Observed value: 0
--
Compound: CC(=O)c1cccc(NC(=O)NC2CCN(c3ccnc(Nc4ccc(F)cc4)n3)C2)c1 (stereo not shown)
Measured parameter: %Inh
Observed value: 13
--
Compound: CNc1nc(-c2ccc3c(N)n[nH]c3c2)cc(N2C[C@@H](C(=O)NC3CCCCC3)OC[C@H]2C)n1
Measured parameter: %Inh
Observed value: 4
--
Compound: FC(F)(F)c1ccccc1-c1cc(-c2c[nH]nc2-c2ccccn2)ccn1
Measured parameter: %Inh
Observed value: 0

Working through the 4 compounds below one at a time, give %Inh for each.
1. COC(=O)C(Cc1ccccc1)NC(=O)NC1CCN(c2ccnc(Nc3ccc(F)cc3)n2)C1 (stereo not shown)
2. COc1ccc(Nc2nccc(N3CCC(NC(=O)C(C)c4ccc(Cl)cc4)C3)n2)cc1 (stereo not shown)
3. Cc1c(Cn2c3ccccc3n3c(=O)cc(N4CCOCC4)nc23)cccc1C(F)(F)F
4. CNc1nc(-c2ccc3c(N)n[nH]c3c2)cc(N2C[C@@H](C(=O)Nc3ccccc3)CC[C@H]2C)n1

Result:
[6, 0, 25, 0]

List reported %Inh for each of these compounds:
1. c1ccc(-c2ccnc3[nH]ccc23)cc1
2. COC(=O)C(NC(=O)NC1CCN(c2ccnc(Nc3ccc(F)cc3)n2)C1)c1ccccc1 (stereo not shown)
3. Cc1c(Cn2c(C)c(C)n3c(=O)cc(N4CCOCC4)nc23)cccc1C(F)(F)F
4. COc1ccc(Nc2nccc(-c3ccc(NC(=O)c4cc5cc(F)ccc5[nH]4)cc3)n2)cc1
5. CNC(=O)c1ccc(C)c(-n2c(C)cc(OCc3ccc(F)cc3F)c(Br)c2=O)c1
6. COc1ccc2cc(-c3nc(-c4ccccc4C(C)C)[nH]c3-c3ccncc3)ccc2c1
7. CC(C)c1ccc(O)cc1Nc1ccnc2ccc(C(F)(F)F)cc12
8. COc1ccc(-c2coc3ccc(-c4nnc(C)o4)cc23)cc1

Result:
0
0
0
0
0
0
0
0

# batch size: 2; output %Inh per entry
1. CSc1ccc(-c2nc3n(c2-c2ccncc2)CCC3)cc1
2. Cc1ccc(-c2nc(Nc3ccncc3)c3ccccc3n2)s1

Result:
1: 0; 2: 0

Values from paper PMC5540273
